// T 1/2 lookup, one value per entry
- ASSAYED_TARGET: T1, hPRLR.mFc (soluble dimeric human PRLR) (human)
- T1 construct: dimeric PRLR construct
- T1 chain: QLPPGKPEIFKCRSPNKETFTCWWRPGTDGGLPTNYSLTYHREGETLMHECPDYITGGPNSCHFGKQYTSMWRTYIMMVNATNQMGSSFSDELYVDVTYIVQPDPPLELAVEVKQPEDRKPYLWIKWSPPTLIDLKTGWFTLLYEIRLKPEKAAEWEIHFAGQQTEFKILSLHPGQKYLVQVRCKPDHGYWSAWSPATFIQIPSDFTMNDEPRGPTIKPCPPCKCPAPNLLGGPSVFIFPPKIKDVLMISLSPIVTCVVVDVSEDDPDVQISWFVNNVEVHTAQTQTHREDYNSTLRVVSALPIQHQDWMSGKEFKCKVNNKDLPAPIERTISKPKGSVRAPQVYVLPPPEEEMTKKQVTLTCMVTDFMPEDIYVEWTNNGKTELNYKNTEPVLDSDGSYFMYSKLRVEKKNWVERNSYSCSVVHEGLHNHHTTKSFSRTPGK
- ASSAY_EXPLANATION: SPR (Biacore), antibody capture, 37 C
Output spec: scalar in h, unitless text.

// solved cases for T 1/2 follow
BINDER | T 1/2 (h)
H1H6975N (antibody, human IgG1, V domains shown, also called H2M6975N) VH: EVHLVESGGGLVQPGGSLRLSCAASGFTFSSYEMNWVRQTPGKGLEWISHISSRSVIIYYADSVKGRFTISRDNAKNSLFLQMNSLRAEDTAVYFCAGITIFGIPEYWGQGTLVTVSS VL: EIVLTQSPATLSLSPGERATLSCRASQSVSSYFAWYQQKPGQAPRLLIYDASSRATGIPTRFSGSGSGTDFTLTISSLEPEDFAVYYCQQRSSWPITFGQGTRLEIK | 2.72
H1H6953N (antibody, human IgG1, V domains shown, also called H1M6953N) VH: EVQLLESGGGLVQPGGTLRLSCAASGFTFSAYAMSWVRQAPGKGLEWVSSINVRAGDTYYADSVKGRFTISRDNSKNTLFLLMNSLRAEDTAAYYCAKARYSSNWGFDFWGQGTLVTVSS VL: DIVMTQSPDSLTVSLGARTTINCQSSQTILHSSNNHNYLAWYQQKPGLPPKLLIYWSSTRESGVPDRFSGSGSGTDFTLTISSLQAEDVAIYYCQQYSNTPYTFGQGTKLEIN | 1.13

In the following, a different binder is considered.
GET /value?item= H1H6976N (antibody, human IgG1, V domains shown, also called H2M6976N) VH: EVQLLESGGGFVQPGGSLRLSCAASGFTFSSYAMSWVRQAPGKGLEWVSIISSNGRYTYYADSVKGRFTISRDNSKNTLYLQMNSLRAEDTAVYYCATVTGDWFDPWGQGTLVTVSS VL: DIQLTQSPSFLSASVGDRVTITCWASQDIDISLAWYQQKPGKAPKLLIYAASTLQSGVPSKFSGSGSGTDFTLTISSLQPEDFSTYYCQQLNSYPITFGQGTRLDIK &field=T 1/2 returns 1.38
